# credit: PubChem BioAssay (NCI)

# Test system: SK-MEL-2 melanoma
# assaySummary: NCI-60 one-dose screen, 48 h (100 = growth as untreated, 0 = no growth, -100 = all killed)
# assayConditions: 10 µM unless noted
Compounds without any hit were thinned out: in the full panel of roughly 83,000, 20% have a hit. Active and inactive are the calls of the source. The calls were made as follows: active = growth percent below 10; inactive = the rest.
recordedMetric: growth

Entry under review: CO[C@H](C(=O)[C@@H](O)[C@@H](C)O)[C@@H]1Cc2cc3cc(O[C@H]4C[C@@H](O[C@H]5C[C@@H](O)[C@H](O)C(C)O5)[C@H](O)C(C)O4)c(C)c(O)c3c(O)c2C(=O)[C@H]1O[C@H]1C[C@@H](O[C@H]2C[C@@H](O[C@H]3C[C@@H](OC)[C@H](O)C(C)O3)[C@@H](O)C(C)O2)C(O)(O)C(C)O1 (stereo partly drawn) . Reported growth?
-79.2% (active)

Follow-up item: O=C1OCC2=C1C(c1cccc(F)c1)c1cc3c(cc1N2CCO)OCO3 (stereo not drawn)
26% (inactive)

Follow-up item: Nc1c(C(=O)O)cc(Cl)cc1[N+](=O)[O-]
110% (inactive)

Follow-up item: COc1cc(-c2nc3ccc(C)cc3[nH]2)ccc1OCC(=O)N=Nc1c(O)[nH]c2ccc(Cl)cc12
13% (inactive)

Follow-up item: O=C1/C(=C/c2ccccc2[N+](=O)[O-])COc2ccc(O)cc21
57.1% (inactive)

Follow-up item: C=CCOC(=O)C1=C(C)NC(=O)NC1c1c(Cl)n(C)c2ccccc12 (stereo not drawn)
112% (inactive)

Follow-up item: CCN(CC)CCN(CCN(CC)CC)c1ccccc1
106% (inactive)

Follow-up item: Cn1cc(/C=C2/C(=O)Nc3ccccc32)c2ccccc21
101% (inactive)

Follow-up item: O=C1NC(=C(Cl)Cl)/C(=N/S(=O)(=O)N2CCCCC2)N1
40.7% (inactive)

Follow-up item: COc1ccc(Cc2nnc(Nc3nc4ccccc4s3)s2)cc1
107% (inactive)

Follow-up item: Cn1c(O)c(C(/C=C/c2ccccc2)=Nc2ccccc2N)c(=O)n(C)c1=O
129% (inactive)

Follow-up item: C=C1C(=O)O[C@H]2[C@H]1CC/C(COC(=O)NCc1ccc(Cn3c(=O)sn(-c4ccc(OC)cc4)c3=O)cc1)=C\CC[C@@]1(C)O[C@@H]21
68.1% (inactive)

Follow-up item: Cc1c2cc[nH]c(=O)c2c(C)c2c1[nH]c1ccc(OC(=O)c3ccccc3)cc12
23.7% (inactive)

Follow-up item: COc1cc2ncnc(Nc3ccc(F)c(Cl)c3)c2cc1OCC(=O)N1CCN(c2ccc(F)cc2)CC1
97.5% (inactive)

Follow-up item: NC(CSC(c1ccccc1)(c1ccccc1)c1ccc2c(c1)OCO2)C(=O)O (stereo not drawn)
-14.6% (active)

Follow-up item: CN(C)Cc1ccc(C(=O)Nc2ccc3ncnc(Nc4ccc(Oc5cccc(F)c5)c(Cl)c4)c3c2)cc1
-27.1% (active)

Follow-up item: COc1ccc(C(c2cc(OC)c(OC)c(OC)c2)N2CCN(Cc3ccccc3)CC2)cc1 (stereo not drawn)
27.4% (inactive)

Follow-up item: NC(=O)OCCn1cc(-c2nc(-c3c[nH]c4ncccc34)cs2)c2ccccc21
2.38% (active)
